- TARGET_DESC: AKT1 E17K (Homo sapiens, UniProt P31749, E17K)
- Construct: expressed in transfected cells; host or cells: HEK293
- Sequence (P31749 whole entry E17K): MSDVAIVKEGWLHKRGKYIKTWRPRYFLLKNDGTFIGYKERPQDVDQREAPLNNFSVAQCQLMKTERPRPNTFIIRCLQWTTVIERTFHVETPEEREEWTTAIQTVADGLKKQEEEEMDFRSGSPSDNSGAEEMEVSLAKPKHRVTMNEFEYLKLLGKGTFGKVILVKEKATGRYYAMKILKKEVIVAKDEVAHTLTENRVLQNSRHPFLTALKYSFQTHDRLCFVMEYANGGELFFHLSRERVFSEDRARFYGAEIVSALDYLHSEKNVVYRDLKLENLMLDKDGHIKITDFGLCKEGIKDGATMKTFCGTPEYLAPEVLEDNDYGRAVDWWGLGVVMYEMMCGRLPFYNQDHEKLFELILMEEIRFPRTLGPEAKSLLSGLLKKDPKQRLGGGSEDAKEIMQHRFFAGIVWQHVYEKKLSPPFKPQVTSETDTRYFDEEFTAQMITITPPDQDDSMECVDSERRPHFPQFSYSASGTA
- ASSAY_REMARKS: Live cell AKT1 E17K target engagement by NanoBRET competitive probe displacement in HEK293 cells
- Assay type: binding
- DETAILS: NanoBRET live cell target engagement, HEK293 cells, 2 h at 37° C.
ENDPOINT_LABEL: pIC50
// pIC50 is dimensionless: -log10 of concentration (M)

INSERT INTO assay_data (compound, endpoint_label, endpoint_result) VALUES
  ('Cn1c(C(=O)N[C@H]2CCc3cc(-n4c(-c5cccnc5N)nc5ccc(-n6cccn6)nc54)ccc32)cc2ccccc2c1=O [Compound 8]', 'pIC50', 7.97),
  ('Nc1ncccc1-c1nc2ccc(-n3cccn3)nc2n1-c1ccc2c(c1)CC[C@@H]2NC(=O)c1ccncc1 [Compound 35]', 'pIC50', 6.84),
  ('Cn1ccc(C(=O)N[C@H]2CCc3cc(-n4c(-c5cccnc5N)nc5ccc(-n6cccn6)nc54)ccc32)n1 [Compound 13]', 'pIC50', 6.48);

Now consider the entry below.
## Task Which pIC50 value belongs to COc1nccc(C(=O)N[C@H]2CCc3cc(-n4c(-c5cccnc5N)nc5ccc(-n6cccn6)nc54)ccc32)c1OC [Compound 355] ?
## Result 6.13
